# Test system: CD8+ T cells
# assay comment: In vitro T-cell priming assay with aAPCs loaded with peptide/MHC complexes and anti-CD28, multimer staining readout (in vitro immunogenicity)
# Type: cell-based, human
# assay context: HLA-A*02 restricted peptides
test readout: Wells positive [%]

substance: 38 (FLLEDDIHVS; listed as Homo sapiens) [compound 38]
experimental target: CD8+ T cells
observed measurement: “+” (<20% = +)
--
substance: 603 (FLIEPEHVNTV; listed as Homo sapiens) [compound 603]
experimental target: CD8+ T cells
observed measurement: “+” (<20% = +)
--
substance: 443 (GLWEIENNPTV; listed as Homo sapiens) [compound 443]
experimental target: CD8+ T cells
observed measurement: “+” (<20% = +)
--
substance: 3 (SLASKLTTL; listed as Homo sapiens) [compound 3]
experimental target: CD8+ T cells
observed measurement: “+” (<20% = +)
--
substance: 8 (FTLGNVVGMYL; listed as Homo sapiens) [compound 8]
experimental target: CD8+ T cells
observed measurement: “+” (<20% = +)

Hey, can you go through the list below and give me Wells positive [%] for every item?
1. 143 (LLLDITPEI; listed as Homo sapiens) [compound 143]
2. 2 (SLLEADPFL; listed as Homo sapiens) [compound 2]
3. 36 (YVLEDLEVTV; listed as Homo sapiens) [compound 36]

“+” (<20% = +)
“+” (<20% = +)
“+” (<20% = +)
